These measurements were taken from PubChem BioAssay.

- experiment: small-molecule binders of probe aInhba, primary screen, biochemical, small-molecule microarray, 635/667 nm fluorescence (AID 1148);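 further: score merges 667nm spot fluorescence with signal-to-noise for antibody binding to printed compounds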
- test context: higher = more signal
Threshold check on composite z-score: at or above -0.08 gives t, strictly below gives f.

Observe how each entry below is paired with its result.
C=C(C(=O)CC[C@H](OC(=O)c1cccnc1)c1cccc(OCCO)c1)C(C)C = t
COCCOC(=O)N1C(=O)[C@@]2(c3cc(C#CCNC(N)=O)ccc31)[C@H](C(=O)N1CCCCCCC1)[C@H]1C(=O)O[C@H](c3ccccc3)[C@H](c3ccccc3)N1[C@@H]2c1ccc(O)cc1 = f
COC(=O)[C@@]1(Cc2ccc(F)cc2)[C@H]2c3cc(C(=O)N4CCCC4)n(CCc4c[nH]c5ccc(OC)cc45)c3C[C@H]2CN1C(=O)c1ccccc1 = t
Cc1ccc(S[C@]2(C(=O)NCCN3CCOCC3)CC(=O)N(Cc3ccccc3C(F)(F)F)[C@@H]2c2ccc(CO)cc2I)cc1 = f
O=C1C[C@@](C(=O)NCC(F)(F)F)(c2ccc([N+](=O)[O-])cc2)[C@@H](c2ccc(CO)cc2)N1C1CCCCC1 = t

For this molecule, is measured composite z-score -0.08 or higher? C=CCC(OC(C)=O)[C@@H]1[C@@H](N(Cc2ccc(-c3ccccc3)cc2)C(=O)c2cccc3ccccc23)c2cc(OCCCO)ccc2N1C(=O)Cc1ccc2ccccc2c1 (stereo not given in full)
f

Textbook exercise: given the entry COc1ccc(C(O)C2C=CC3C(=O)N(Cc4ccccc4)C(=O)C3N2n2cnnc2)c2ccccc12 (stereo not given) , state whether its composite z-score is greater than or equal to -0.08.
t

State whether the measured composite z-score reaches -0.08, counting equality as reaching it, for NCCCCCNC(=O)[C@@H]1C[C@@H]2C(=O)N[C@@H](CCCCN)C(=O)N2[C@@H]1c1cccc(OCCO)c1
f

// inclusive: composite z-score at least -0.08? input: COC(=O)[C@@]1(Cc2ccc(F)cc2)[C@H]2c3cc(C(=O)N4CCCC4)n(CCF)c3C[C@H]2CN1C(=O)c1ccccc1
t

Dear colleague, could you confirm whether CN1C2C=C(CCCO)C(C3C(=O)N(C(N)=O)C(=O)C32)C1c1cccs1 (stereo not given) has composite z-score at or above -0.08?
f
